The following binders are listed with their measured kd var/kd wt values.
- SYSTEM UNDER TEST: T1, human TGFβ2 (human, UniProt P61812 303-414)
- T1 construct: also called TGFβ2 homodimer
- T1 sequence: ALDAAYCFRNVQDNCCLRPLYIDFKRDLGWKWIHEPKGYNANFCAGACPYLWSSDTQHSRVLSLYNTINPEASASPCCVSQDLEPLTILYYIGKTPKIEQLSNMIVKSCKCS
- METHOD: Biacore off-rate vs wt GC1008, 50 nM
# respond with the number and nothing more

Reference set, count: 3
[[record]]
binder = "D56P (antibody, V domains shown, GC1008 IgG4 variant) VH: QVQLVQSGAEVKKPGSSVKVSCKASGYTFSSNVISWVRQAPGQGLEWMGGVIPIVPIANYAQRFKGRVTITADESTSTTYMELSSLRSEDTAVYYCASTLGLVLDAMDYWGQGTLVTVSS VL: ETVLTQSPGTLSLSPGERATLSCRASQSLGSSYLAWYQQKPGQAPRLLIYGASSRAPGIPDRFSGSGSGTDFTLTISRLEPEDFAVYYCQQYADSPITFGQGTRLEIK"
reported_value = 1.9

[[record]]
binder = "I54T (antibody, V domains shown, GC1008 IgG4 variant) VH: QVQLVQSGAEVKKPGSSVKVSCKASGYTFSSNVISWVRQAPGQGLEWMGGVIPTVDIANYAQRFKGRVTITADESTSTTYMELSSLRSEDTAVYYCASTLGLVLDAMDYWGQGTLVTVSS VL: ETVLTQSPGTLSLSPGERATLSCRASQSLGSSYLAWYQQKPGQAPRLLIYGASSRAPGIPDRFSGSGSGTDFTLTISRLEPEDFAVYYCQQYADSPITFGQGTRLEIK"
reported_value = 1.3

[[record]]
binder = "S30R (antibody, V domains shown, GC1008 IgG4 variant) VH: QVQLVQSGAEVKKPGSSVKVSCKASGYTFRSNVISWVRQAPGQGLEWMGGVIPIVDIANYAQRFKGRVTITADESTSTTYMELSSLRSEDTAVYYCASTLGLVLDAMDYWGQGTLVTVSS VL: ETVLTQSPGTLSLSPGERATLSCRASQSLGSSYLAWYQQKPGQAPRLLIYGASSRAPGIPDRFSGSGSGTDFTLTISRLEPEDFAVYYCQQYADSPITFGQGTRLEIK"
reported_value = 1.2


(Q) Request the reported kd var/kd wt associated with E74G (antibody, V domains shown, GC1008 IgG4 variant) VH: QVQLVQSGAEVKKPGSSVKVSCKASGYTFSSNVISWVRQAPGQGLEWMGGVIPIVDIANYAQRFKGRVTITADGSTSTTYMELSSLRSEDTAVYYCASTLGLVLDAMDYWGQGTLVTVSS VL: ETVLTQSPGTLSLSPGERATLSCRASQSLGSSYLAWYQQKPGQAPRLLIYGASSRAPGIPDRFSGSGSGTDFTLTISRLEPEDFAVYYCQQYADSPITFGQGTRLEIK
(A) 0.7
